target: Dihydroorotate dehydrogenase (quinone), mitochondrial (Plasmodium falciparum (isolate 3D7)) (UniProt Q08210); assay: PfDHODH enzyme inhibitors, primary screen, biochemical, C-terminal His tag, absorbance 600 nm (AID 1175); conditions: DCIP absorbance 600 nm, higher = more signal, called active from +8 up or from −8 down;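 further: recombinant parasite enzyme with a five histidine tag at its C terminus; test concentration not given here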
Sequence (Q08210 whole entry, looked up): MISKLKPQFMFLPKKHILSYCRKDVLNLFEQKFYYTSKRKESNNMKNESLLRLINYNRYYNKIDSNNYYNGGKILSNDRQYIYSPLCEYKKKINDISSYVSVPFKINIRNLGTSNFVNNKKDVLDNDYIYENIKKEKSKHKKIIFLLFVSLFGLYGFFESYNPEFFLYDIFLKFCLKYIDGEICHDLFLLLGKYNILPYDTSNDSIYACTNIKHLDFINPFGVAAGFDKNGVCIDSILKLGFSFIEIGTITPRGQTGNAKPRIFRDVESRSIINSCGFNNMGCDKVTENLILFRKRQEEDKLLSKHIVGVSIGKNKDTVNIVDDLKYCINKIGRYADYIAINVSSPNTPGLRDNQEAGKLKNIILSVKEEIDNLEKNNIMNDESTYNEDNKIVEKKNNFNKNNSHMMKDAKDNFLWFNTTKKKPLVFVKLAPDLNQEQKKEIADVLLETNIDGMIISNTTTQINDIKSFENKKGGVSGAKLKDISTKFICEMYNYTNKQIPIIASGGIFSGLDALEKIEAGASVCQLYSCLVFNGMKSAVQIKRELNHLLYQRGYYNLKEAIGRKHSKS
Entries and their composite z-score
Reply: number alone, nothing else.

Here are 5 molecules together with their reported answers.
{"columns": ["molecule", "composite z-score"],
 "data": [
  ["O=C1OCCC/C=C\\[C@H]2OC34C=CCN(CCN5CCOCC5)C(=O)[C@H]3N(CCCCCO)C(=O)[C@@H]4C12 (some centres not stated)", 0.286],
  ["C=CCC1=C[C@H]2[C@H]([C@@H]3C=C[C@]2(CC=C)C(=O)[C@]32CO2)[C@@]2(CO2)C1=O", -0.491],
  ["CCCCCCc1nc(C2CC2)c(C)c2c1[Si](C(C)C)(C(C)C)OC2", -3.54],
  ["CCCC=C(CCC)[C@@H](NS(=O)(=O)c1cccc(C(F)(F)F)c1)c1ccc(C(=O)OC)cc1", -0.237],
  ["CCOC(=O)C[C@H]1[C@H](OC(=O)c2ccccc2-c2ccccc2)[C@@H](NC(=O)C2CCCCC2)c2cc(OCCCO)ccc2N1C(=O)c1ccccc1", 0.684]
]}

Query string: # get_value(readout='composite z-score', item= "CCCC[C@H]1OB(O)C[C@H]2C1=C(COC)C[C@H]1C(=O)N(Cc3ccccc3)C(=O)[C@H]12" )
Result string: 0.282

Query string: # get_value(readout='composite z-score', item= CC(C)[C@H]1NC(=O)[C@@]23C(=O)N[C@@H](Cc4ccccc4)C2[C@H](C)[C@@]2(C)O[C@H]2C3/C=C/C/C=C\CNC(=O)[C@H](C)NC1=O (some centres not stated) )
Result string: -0.0591

---

biological target: Torsin-1A (Homo sapiens) (UniProt O14656); experiment: small-molecule binders of mutant TOR1A in lysate, primary screen, cell lysate, small-molecule microarray, COS7 lysate, 635/667 nm fluorescence (AID 1150); details: COS7 hTOR1A mutant lysate, 635 nm fluorescence, higher = more signal;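 further: score pools 667 nm emission and signal to noise measuring lysate protein binding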
Sequence (O14656 whole entry, looked up): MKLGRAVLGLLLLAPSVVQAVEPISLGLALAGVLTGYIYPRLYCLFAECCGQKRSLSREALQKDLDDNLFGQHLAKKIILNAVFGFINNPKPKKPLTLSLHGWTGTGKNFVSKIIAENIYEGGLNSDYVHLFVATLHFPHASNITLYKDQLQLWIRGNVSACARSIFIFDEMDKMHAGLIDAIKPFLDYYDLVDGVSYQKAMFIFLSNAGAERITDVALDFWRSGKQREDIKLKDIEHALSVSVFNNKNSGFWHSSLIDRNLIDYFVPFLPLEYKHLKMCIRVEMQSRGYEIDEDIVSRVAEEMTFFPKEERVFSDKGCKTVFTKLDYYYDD
Entries and their composite z-score
Reply: number alone, nothing else.

Here are 3 compounds together with their reported answers.
{"columns": ["compound", "composite z-score"],
 "data": [
  ["C=C(CCCC)/C(=C/C[C@H](OC(=O)c1ccncc1)c1cccc(OCCO)c1)c1cc(C(=O)OC)ccc1OC", 0.458],
  ["C[N+](C)(C)CCCC[C@@H]1NC(=O)[C@H]2C[C@@H](C(=O)NCc3ccc(F)cc3)[C@@H](c3cccc(OCCO)c3)N2C1=O", 1.07],
  ["O=C1O[C@H](c2ccccc2)[C@H](c2ccccc2)N2[C@H]1[C@@H](C(=O)Nc1nc3ccccc3s1)[C@]1(C(=O)Nc3ccc(C#CC4(O)CCCCCC4)cc31)[C@H]2c1ccc(O)cc1", 0.164]
]}

Query string: Which measured composite z-score belongs to "COCCCNC(=O)[C@@H]1c2ccccc2C(=O)N(CC23CC4CC(CC(C4)C2)C3)[C@H]1c1ccc(CO)cc1" , tested on Torsin-1A (Homo sapiens) (UniProt O14656)?
Result string: 0.262

Query string: Which measured composite z-score belongs to O=C1C2C=CC(C(O)c3ccccc3)N(n3cnnc3)C2C(=O)N1Cc1ccccc1 (configuration not stated) , tested on Torsin-1A (Homo sapiens) (UniProt O14656)?
Result string: -0.457

Query string: Which measured composite z-score belongs to "COCCOC(=O)N1C(=O)[C@@]2(c3cc(C#CCNC(N)=O)ccc31)[C@H](c1ccc(OCCO)cc1)N1[C@H](c3ccccc3)[C@H](c3ccccc3)OC(=O)[C@H]1[C@@H]2C(=O)Nc1nc2ccccc2s1" , tested on Torsin-1A (Homo sapiens) (UniProt O14656)?
Result string: 0.471

Query string: Which measured composite z-score belongs to "CCOC(=O)[C@H]1C/C=C/C[C@H](C(=O)OCC)C(=O)O[C@H]2[C@@H](OC)O[C@H](CO)[C@@H](OC(=O)Nc3ccc(Br)cc3)[C@@H]2OC1=O" , tested on Torsin-1A (Homo sapiens) (UniProt O14656)?
Result string: -0.2
